tested on: human prostate cancer (PC-3); experiment: Cytotoxicity assay (WST-8), PC-3; assay type: cell-based; conditions: Table 7; WST-8, 48 h exposure; mean ± S.D.; read-out: Cytotoxic activity (GI50) PC-3
recorded.endpoint: GI50 (µM)
Quick reminder: number only, in µM, skip the unit.

QUERY: Entry CC(C)C1=Cc2ccc3c(c2C(=O)C1=O)C(=O)CCC3(C)C [Compound 19, 1-oxomiltirone] , system human prostate cancer (PC-3): what GI50 was measured?
RESULT: 19

====

tested on: human exocrine pancreatic cancer (PANC-1); test: Cytotoxicity assay (WST-8), PANC-1; format: cell-based; conditions: Homo sapiens, PANC-1; Table 1; read-out: Activity against human exocrine pancreatic tumor PANC-1 (GI50)
In this section we review reported GI50 values for a set of compounds.
Give just the number in µM; leave the unit off.

CC(C)c1cc2c(c(O)c1O)[C@@]1(C)CCCC(C)(C)C1=C(O)C2=O; 22.6
CC(C)C1=C(O)C(=O)C2=C(CC[C@H]3C(C)(C)CCC[C@]23C)C1=O; 52.6
CC(C)c1cc2c(cc1O)[C@@]1(C)CCCC(C)(C)C1CC2O (some centres unmarked) [Compound 15, 7-hydroxyferruginol]; 78.2
CC(C)c1cc2c(cc1O)[C@@]1(C)CCCC(C)(C)C1=C(O)C2=O; 23.1
CC(C)c1cc2c(c(O)c1O)[C@@]1(C)CCCC(C)(C)[C@@H]1CC2=O [Compound 12, 11-hydroxysugiol]; 43.1

QUERY: Suppose we examine the compound CC(C)c1cc2c(cc1O)[C@@]1(C)CCCC(C)(C)[C@@H]1C[C@H]2CC1=CCC(O)(C(C)C)CC1 (some centres unmarked) ; what GI50 value has been reported?
RESULT: 60.4

QUERY: Any idea what its GI50 is? The compound is CC(C)c1cc2ccc3c(c2cc1O)CCCC3(C)C [Compound 17, 12-hydroxy simonellite]
RESULT: 37.5

QUERY: Report GI50 for CC(C)c1cc2c(cc1O)[C@@]1(C)CCCC(C)(C)C1C=C2 (some centres unmarked) [Compound 16, 6,7-dehydroferruginol] please.
RESULT: 46.7

====

This listing pairs compounds with measured GI50.
test system: human exocrine pancreatic cancer (PANC-1); test: Cytotoxicity assay (WST-8), PANC-1; type: cell-based; conditions: Homo sapiens, PANC-1, 48 h, read-out: Cytotoxic activity (GI50) PANC-1
Kindly provide the numeric value in µM only, without the unit symbol.

Worked examples, 2 compounds total:
CC(C)c1cc2c(c(O)c1O)[C@@]1(C)CCCC(C)(C)C1=C(O)C2=O [Compound 7, 14-deoxycoleon U]; 22.6
CC(C)c1cc2c(cc1O)[C@@]1(C)CCCC(C)(C)C1CC2O (stereo partly shown) [Compound 15, 7-hydroxyferruginol]; 78.2

QUERY: Provide value of GI50 for this record tested with human exocrine pancreatic cancer (PANC-1): CC(C)c1cc2c(cc1O)[C@@]1(C)CCCC(C)(C)[C@@H]1C[C@H]2CC1=CCC(O)(C(C)C)CC1 (stereo partly shown) [Compound 6, 7-(menth-1-en-4-ol)-ferruginol]
RESULT: 60.4

QUERY: Fill in the recorded GI50 for this compound, with human exocrine pancreatic cancer (PANC-1) as test system: CC(C)C1=C(O)C(=O)C2=C(C=CC3C(C)(C)CCC[C@]23C)C1=O (stereo partly shown) [Compound 21, 6,7-dehydroroyleanone]
RESULT: 51.3

QUERY: Record lookup: for human exocrine pancreatic cancer (PANC-1), what GI50 belongs to CC(C)c1cc2c(cc1O)[C@@]1(C)CCCC(C)(C)C1C=C2 (stereo partly shown) [Compound 16, 6,7-dehydroferruginol] ?
RESULT: 46.7

QUERY: Checklist item: GI50 tested on human exocrine pancreatic cancer (PANC-1), entry CC(C)c1cc2c(c(O)c1O)[C@@]1(C)CCCC(C)(C)[C@@H]1CC2=O [Compound 12, 11-hydroxysugiol] , value?
RESULT: 43.1
